# target_of_assay: human 5-HT6 receptor (Homo sapiens)
# Construct: host or cells: CHO-K1 cells, stably transfected; membranes prepared in house
# measurement_description: Human 5-HT6 Receptor Binding Assay ([3H]LSD, scintillation beads)
# condition_set: read-out: Human 5-HT6 Ki app; membranes of CHO-K1 cells with recombinant human 5-HT6 receptor, 4 nM [3H]LSD, Cheng-Prusoff
measurement_kind: Ki

Data request: Endpoint output: Ki of O=S(=O)(c1cncc(Cl)c1)c1ccc2c(c1)OCC1NCCC21 (single isomer, unassigned) [Example 34] . Value?
Data returned: < 0.5 µM

Data request: And for Cc1cccc(S(=O)(=O)c2ccc3c(c2)OCC2NCCC32)n1 (single isomer, unassigned) [Example 24] ?
Data returned: < 0.5 µM

Data request: # iterate: O=S(=O)(c1cncc(Br)c1)c1ccc2c(c1)OCC1NCCC21 (single isomer, unassigned) [Example 31]
Data returned: < 0.5 µM

* * *

Can you tell me Ki for the items I'm about to list?
# target_of_assay: human 5-HT6 receptor (Homo sapiens, UniProt P50406)
# Construct: host or cells: CHO-K1 cells, stably transfected; membranes prepared in house
# Sequence (P50406 whole entry): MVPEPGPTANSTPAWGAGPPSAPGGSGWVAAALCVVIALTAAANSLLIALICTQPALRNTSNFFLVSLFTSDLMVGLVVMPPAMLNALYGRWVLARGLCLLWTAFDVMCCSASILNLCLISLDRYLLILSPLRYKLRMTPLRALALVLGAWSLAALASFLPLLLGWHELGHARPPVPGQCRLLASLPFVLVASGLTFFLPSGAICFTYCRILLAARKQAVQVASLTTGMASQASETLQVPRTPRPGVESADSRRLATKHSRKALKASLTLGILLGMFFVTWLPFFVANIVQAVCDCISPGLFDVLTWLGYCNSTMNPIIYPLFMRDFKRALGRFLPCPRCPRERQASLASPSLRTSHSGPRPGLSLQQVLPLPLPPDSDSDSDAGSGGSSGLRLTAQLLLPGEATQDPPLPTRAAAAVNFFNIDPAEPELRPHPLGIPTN
# measurement_description: Human 5-HT6 Receptor Binding Assay ([3H]LSD, scintillation beads)
# condition_set: membranes of CHO-K1 cells with recombinant human 5-HT6 receptor, 4 nM [3H]LSD, Cheng-Prusoff; read-out: Human 5-HT6 Ki app

Data request: Hi! What's the reported Ki for O=S(=O)(c1cncc(C(F)(F)F)c1)c1ccc2c(c1)OCC1NCCC21 (single isomer, unassigned) [Example 52] on human 5-HT6 receptor (Homo sapiens, UniProt P50406)?
Data returned: 500 to 1000 nM

Data request: Do the same for O=S(=O)(c1cccc(C(F)(F)F)c1)c1ccc2c(c1)OCC1NCCC21 (single isomer, unassigned) [Example 8] please
Data returned: < 500 nM

Data request: Lookup [O-][S+](c1ccccc1)c1ccc2c(c1)OCC1NCCC21 (racemic) [Example 26]
Data returned: > 1000 nM

Data request: And what about the compound CN(C)C(=O)c1cccc(S(=O)(=O)c2ccc3c(c2)OC[C@@H]2NCC[C@H]32)c1 (single isomer, unassigned) [Example 46] ?
Data returned: < 500 nM

Data request: Field entry: O=S(=O)(c1ccccc1)c1ccc2c(c1)OCC1C2CCN1CCCO (single isomer, unassigned) [Example 100]
Data returned: < 500 nM

Data request: Again, but for O=S(=O)(c1cc(F)cc(F)c1)c1ccc2c(c1)OCC1NCCC21 (racemic) [Example 105]
Data returned: < 500 nM

Data request: Repeat with O=S(=O)(c1cccc(OC(F)(F)F)c1)c1ccc2c(c1)OCC1NCCC21 (single isomer, unassigned) [Example 7]
Data returned: < 500 nM

* * *

# target_of_assay: human 5-HT6 receptor (Homo sapiens)
# Construct: host or cells: CHO-K1 cells, stably transfected; membranes prepared in house
# measurement_description: Human 5-HT6 Receptor Binding Assay ([3H]LSD, scintillation beads)
# condition_set: Human 5-HT6 Ki (nM), actual data; membranes of CHO-K1 cells with recombinant human 5-HT6 receptor, 4 nM [3H]LSD
For each of the compounds below, state its Ki.
Expressed in nM, but write only the number.

Data request: Query (compound): Cc1cccc([S+]([O-])c2ccc3c(c2)OCC2NCCC32)n1 (single isomer, unassigned) [Example 22] ; field requested: Ki
Data returned: 51.5

Data request: For COc1cncc(S(=O)(=O)c2ccc3c(c2)OCC2NCCC32)c1 (racemic) [Example 110] then?
Data returned: 98.4

* * *

Provide the reported Ki of each item.
# target_of_assay: human 5-HT6 receptor (Homo sapiens, UniProt P50406)
# Construct: host or cells: CHO-K1 cells, stably transfected; membranes prepared in house
# measurement_description: Human 5-HT6 Receptor Binding Assay ([3H]LSD, scintillation beads)
# condition_set: membranes of CHO-K1 cells with recombinant human 5-HT6 receptor, 4 nM [3H]LSD, Cheng-Prusoff; read-out: Human 5-HT6 Ki app

Data request: Which value of Ki has been reported for O=S(=O)(c1cccc(C(F)(F)F)c1)c1ccc2c(c1)OCC1NCCC21 (single isomer, unassigned) [Example 17] in the records?
Data returned: < 500 nM

Data request: Okay, and O=S(=O)(c1cc(Cl)cc(Cl)c1)c1ccc2c(c1)OCC1NCCC21 (single isomer, unassigned) [Example 3] ?
Data returned: < 500 nM

Data request: What do we get for COc1cc(F)cc(S(=O)(=O)c2ccc3c(c2)OCC2NCCC32)c1 (single isomer, unassigned) [Example 44] ?
Data returned: < 500 nM

Data request: Now try O=S(=O)(c1cncc(F)c1)c1ccc2c(c1)OCC1C2CCN1C1CCC1 (single isomer, unassigned) [Example 75] .
Data returned: > 1000 nM

Data request: Next entry: O=S(=O)(c1cc(F)cc(Cl)c1)c1ccc2c(c1)OCC1NCCC21 (single isomer, unassigned) [Example 15]
Data returned: < 500 nM

Data request: And then CC(C)N1CCC2c3ccc(S(=O)(=O)c4ccccc4)cc3OCC21 (single isomer, unassigned) [Example 57] , what is it?
Data returned: 500 to 1000 nM

Data request: What do we get for O=S(=O)(c1ccccc1)c1ccc2c(c1)OCC1C2CCN1C1CCCCC1 (single isomer, unassigned) [Example 64] ?
Data returned: > 1000 nM

* * *

# target_of_assay: human 5-HT6 receptor (Homo sapiens)
# Construct: host or cells: CHO-K1 cells, stably transfected; membranes prepared in house
# measurement_description: Human 5-HT6 Receptor Binding Assay ([3H]LSD, scintillation beads)
# condition_set: membranes of CHO-K1 cells with recombinant human 5-HT6 receptor, 4 nM [3H]LSD, Cheng-Prusoff; read-out: Human 5-HT6 Ki app
Can you tell me Ki for the items I'm about to list?

Data request: Need Ki, item O=S(=O)(c1ccc(F)cc1)c1ccc2c(c1)OCC1NCCC21 (single isomer, unassigned) [Example 4]
Data returned: < 500 nM

Data request: Cool, now O=S(=O)(c1cncc(C(F)(F)F)c1)c1ccc2c(c1)OCC1C2CCN1C1CCC1 (single isomer, unassigned) [Example 87]
Data returned: > 1000 nM

Data request: // repeat for O=S(=O)(c1ccccc1)c1ccc2c(c1)OCC1C2CCN1CC(F)F (single isomer, unassigned) [Example 67] and report
Data returned: < 500 nM

Data request: Please give the result for Cc1cccc(S(=O)(=O)c2ccc3c(c2)OCC2C3CCN2C2CCC2)n1 (single isomer, unassigned) [Example 84] too.
Data returned: > 1000 nM

Data request: Consider next the compound O=S(=O)(c1ccccc1)c1ccc2c(c1)OCC1C2CCN1C1CCOC1 (single isomer, unassigned) [Example 65] in the same way.
Data returned: 500 to 1000 nM

Data request: // query: O=S(=O)(c1cncc(F)c1)c1ccc2c(c1)OCC1C2CCN1C1CCC1 (single isomer, unassigned) [Example 80]
Data returned: > 1000 nM

Data request: Field entry: O=S(=O)(c1ccccc1)c1ccc2c(c1)OCC1C2CCN1CCc1ccccc1 (single isomer, unassigned) [Example 96]
Data returned: < 500 nM

* * *

# target_of_assay: human 5-HT6 receptor (Homo sapiens)
# Construct: host or cells: CHO-K1 cells, stably transfected; membranes prepared in house
# measurement_description: Human 5-HT6 Receptor Binding Assay ([3H]LSD, scintillation beads)
# condition_set: membranes of CHO-K1 cells with recombinant human 5-HT6 receptor, 4 nM [3H]LSD, Cheng-Prusoff; read-out: Human 5-HT6 Ki app
# Description: Human 5-HT6 Receptor Binding Assay Membranes were prepared from CHO-K1 cells stably transfected with the human 5-HT6 receptor (Euroscreen; ES-316-C). […] The membranes were centrifuged at 40,000×g for 30 min at 4° C. and the pellets were resuspended in membrane buffer containing 250 mM sucrose, and protein concentration was determined using the Coomassie Plus kit (Pierce Biotechnology, Rockford, Ill.). […]
pKi: −log10 of the molar value.
measurement_kind: pKi

Data request: I would be grateful if you could share the reported pKi for O=S(=O)(c1ccccc1)c1ccc2c(c1)OCC1C2CCN1C1CCCC1 (single isomer, unassigned) [Example 62] .
Data returned: < 6.00

Data request: // same read-out, input: Cc1cccc([S+]([O-])c2ccc3c(c2)OCC2C3CCN2C2CCC2)n1 (single isomer, unassigned)
Data returned: < 6.00

Data request: What do we get for O=S(=O)(c1ccccc1)c1ccc2c(c1)OCC1C2CCN1CCCO (single isomer, unassigned) [Example 93] ?
Data returned: > 6.30

Data request: Subsequent entry: O=S(=O)(c1cccc(Cl)c1)c1ccc2c(c1)OCC1NCCC21 (single isomer, unassigned) [Example 2]
Data returned: > 6.30

Data request: Also need COCCN1CCC2c3ccc(S(=O)(=O)c4ccccc4)cc3OCC21 (single isomer, unassigned) [Example 92] , thanks.
Data returned: > 6.30

Data request: Repeat for the following molecule: [O-][S+](c1ccccc1)c1ccc2c(c1)OCC1NCCC21 (racemic) [Example 106]
Data returned: > 6.30

Data request: Note, next up: COc1cc(F)cc(S(=O)(=O)c2ccc3c(c2)OCC2NCCC32)c1 (single isomer, unassigned) [Example 36]
Data returned: > 6.30

Data request: Then this molecule: O=S(=O)(c1ccccc1)c1ccc2c(c1)OCC1C2CCN1CCO (single isomer, unassigned) [Example 97]
Data returned: > 6.30

Data request: Repeat for the following molecule: O=S(=O)(c1ccc2c(c1)OCC1NCCC21)c1cccc2ccccc12 (single isomer, unassigned) [Example 19]
Data returned: > 6.30

Data request: For O=S(=O)(c1cncc(C(F)(F)F)c1)c1ccc2c(c1)OCC1NCCC21 (single isomer, unassigned) [Example 51] then?
Data returned: > 6.30

Data request: What do you have for O=S(=O)(c1cccc(F)c1)c1ccc2c(c1)OCC1NCCC21 (single isomer, unassigned) [Example 10] ?
Data returned: > 6.30

Data request: Also O=S(=O)(c1ccccc1)c1ccc2c(c1)OCC1C2CCN1CCO (single isomer, unassigned) [Example 90] , if possible.
Data returned: > 6.30

Data request: Similarly, O=S(=O)(c1cncc(Cl)c1)c1ccc2c(c1)OCC1C2CCN1C1CCC1 (single isomer, unassigned) [Example 81] ?
Data returned: < 6.00

Data request: Moving on to the next molecule: O=S(=O)(c1ccccc1)c1ccc2c(c1)OCC1C2CCN1CC1CC1 (single isomer, unassigned)
Data returned: < 6.00

Data request: Same question for COCCN1CCC2c3ccc(S(=O)(=O)c4ccccc4)cc3OCC21 (single isomer, unassigned) [Example 99] please.
Data returned: < 6.00

Data request: Also, O=S(=O)(c1ccccc1)c1ccc2c(c1)OCC1C2CCN1C1CCC1 (single isomer, unassigned) [Example 59] please.
Data returned: 6.00 to 6.30

Data request: Let us now turn to O=S(=O)(c1cncc(Br)c1)c1ccc2c(c1)OCC1C2CCN1C1CCC1 (single isomer, unassigned) [Example 78]
Data returned: < 6.00

Data request: Another molecule to check: O=S(=O)(c1ccccc1)c1ccc2c(c1)OCC1C2CCN1CC1CCCC1 (single isomer, unassigned) [Example 70]
Data returned: > 6.30

Data request: Param item: Cc1cccc(S(=O)(=O)c2ccc3c(c2)OCC2C3CCN2C2CCC2)n1 (single isomer, unassigned) [Example 85]
Data returned: < 6.00

Data request: Another molecule to check: CC(C)Oc1cc(F)cc(S(=O)(=O)c2ccc3c(c2)OCC2NCCC32)c1 (single isomer, unassigned) [Example 27]
Data returned: > 6.30

Data request: Would you kindly repeat that for O=S(=O)(c1ccc2c(c1)OCC1NCCC21)c1cccc(F)c1F (single isomer, unassigned) [Example 41] ?
Data returned: > 6.30

Data request: Follow-up entry: O=S(=O)(c1ccccc1)c1ccc2c(c1)OCC1C2CCN1C1CCOCC1 (single isomer, unassigned) [Example 69]
Data returned: < 6.00

Data request: Follow-up item: Cc1cccc(Sc2ccc3c(c2)OCC2NCCC32)n1 (single isomer, unassigned)
Data returned: < 6.00

Data request: Thanks! And O=S(=O)(c1ccccc1)c1ccc2c(c1)OCC1C2CCN1Cc1ccccc1 (single isomer, unassigned) [Example 102] ?
Data returned: < 6.00

Data request: Can you handle Cc1cccc(Sc2ccc3c(c2)OCC2C3CCN2C2CCC2)n1 (single isomer, unassigned) next?
Data returned: < 6.00

Data request: // next record O=S(=O)(c1ccccc1)c1ccc2c(c1)OCC1NCCC21 (single isomer, unassigned) [Example 55]
Data returned: > 6.30

Data request: Next up: O=S(=O)(c1ccccc1)c1ccc2c(c1)OCC1C2CCN1C1CCOCC1 (single isomer, unassigned) [Example 68]
Data returned: > 6.30

Data request: // same read-out, input: O=S(=O)(c1ccc2c(c1)OCC1NCCC21)c1cccc2ccccc12 (single isomer, unassigned) [Example 20]
Data returned: > 6.30

Provenance of the data: patent US9115147B2
